Just for reference, paper PMC10397247 is where these values come from.

- TARGET: T1, 4H72-bN
- T1 chain: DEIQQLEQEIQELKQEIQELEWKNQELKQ
- ASSAY DETAILS: two-hybrid library CCNG1;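 note: natural log of median RNA to DNA barcode read ratio; higher means stronger binding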
REPORTED METRIC: interaction score

- BINDER: "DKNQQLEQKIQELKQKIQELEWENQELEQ [4H3427-bN]"
  interaction score: -1.54

1. DKNQQLKQKIQELEQEIQELKWKNQELEQ [4H3855-bN]
2. DEIAQLEQKNAELKQENAELKWKIAQLEQ [4H477-bA]
3. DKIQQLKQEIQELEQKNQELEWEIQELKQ [4H2610-bN]
q: Place the items in sequence of falling interaction score. Answer format: the labels, ordered as requested.
a: 1, 3, 2
(1: -0.0369, 3: -1.85, 2: -3.66)
